Molecular target: T1, wheat germ agglutinin (WGA) (Triticum vulgare, UniProt P10968 P10968:27-197)
T1 sequence: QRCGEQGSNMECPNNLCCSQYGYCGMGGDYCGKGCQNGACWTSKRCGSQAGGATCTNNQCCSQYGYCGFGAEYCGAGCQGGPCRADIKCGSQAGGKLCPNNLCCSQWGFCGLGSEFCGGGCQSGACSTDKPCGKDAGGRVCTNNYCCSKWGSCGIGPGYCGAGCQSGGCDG
Test: filter; HBSS, room temp
Conditions: tags: free lectin, E Y Laboratories; label: 32P
Field: log10 of Kd. Provide a value for each of the binders that follow.
Please note: log10 values; quantity Kd; unit nM.

Per the records, this binder ( 11.29 (ssRNA, 2'-NH2 all C and U) RNA: GGGAAAAGCGAAUCAUACACAAGAACUGAGUAAGGUCUGGCGUGGCAUUAGGUUAGUGGGAGGCUUGGAGUAGGCUCCGCCAGAGACCAACCGAGAA ) has log10 of Kd equal to 1.51

Recorded result, 6.27 (ssRNA, 2'-NH2 all C and U) RNA: GGGAAAAGCGAAUCAUACACAAGAUGCCGGUGGAAAGGCGGGUAGGUGACCCGAGGAUUCCUACCAAGCCAUGCUCCGCCAGAGACCAACCGAGAA , log10 of Kd: 1.75

Recorded log10 of Kd (binder 6.5 (ssRNA, 2'-NH2 all C and U) RNA: GGGAAAAGCGAAUCAUACACAAGAGUCCCUAGGGAUGCAACGGGCAGCAUUCGCAUAGGAGUAAUCGGAGGUCGCUCCGCCAGAGACCAACCGAGAA ): 2.83

Notebook: 6.19 (ssRNA, 2'-NH2 all C and U) RNA: GGGAAAAGCGAAUCAUACACAAGAAUCGAACCUAGGGAUGCAACGGUGAAGGUUGUGAGGAUUCGCCAUUAGGCGCUCCGCCAGAGACCAACCGAGAA , log10 of Kd read as 1.87

// 11.2 (ssRNA, 2'-NH2 all C and U) RNA: GGGAAAAGCGAAUCAUACACAAGACCAACGUACAUCGCGAGCUGGUGGAGAGUUCAUGAGGGUGUUACGGGGUGCUCCGCCAGAGACCAACCGAGAA : log10 of Kd value = 1.79

The binder identified as 6.3 (ssRNA, 2'-NH2 all C and U) RNA: GGGAAAAGCGAAUCAUACACAAGAGAUACAGCGCGGGUCUAAAGACCUUGCCCCUAGGAUGCAACGGGGUGGCUCCGCCAGAGACCAACCGAGAA registered its log10 of Kd at 2.08
